- target.or.test.system: Adenosine deaminase (Bos taurus, UniProt P56658)
- Sequence (P56658 whole entry): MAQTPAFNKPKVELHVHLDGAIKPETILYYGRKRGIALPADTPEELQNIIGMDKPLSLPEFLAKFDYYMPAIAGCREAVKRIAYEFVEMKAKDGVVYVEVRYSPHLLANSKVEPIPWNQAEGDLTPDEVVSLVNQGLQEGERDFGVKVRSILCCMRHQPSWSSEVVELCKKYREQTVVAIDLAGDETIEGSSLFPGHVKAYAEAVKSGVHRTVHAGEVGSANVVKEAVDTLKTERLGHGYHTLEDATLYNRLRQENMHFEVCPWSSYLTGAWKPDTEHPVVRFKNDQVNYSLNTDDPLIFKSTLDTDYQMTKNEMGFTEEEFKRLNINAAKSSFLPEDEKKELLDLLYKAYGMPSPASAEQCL
observable: Ki (µM)

Examples with their reported Ki follow.
> print(dat)
                                   compound  number
1  OC1CN=CNc2c1ncn2Cc1ccccc1 (configuration not stated)       6
2  CCCCCCCCn1cnc2c1N=CNCC2O (configuration not stated)    0.45
3  COC(=O)CCCCCCCn1cnc2c1N=CNCC2O (configuration not stated)    0.95

(P) OCCCCCCn1cnc2c1N=CNCC2O (configuration not stated)
(Q) CCCCn1cnc2c1NC=NCC2O (configuration not stated)
## Input Please indicate which entry, P or Q , has the lower recorded Ki value. Answer format: the label of the selected item.
## Output P
